Study target: GABAA receptor (rat brain cortical membranes, [35S]-TBPS binding)
Condition label: Table I-4; rat brain cortical membranes, 3 nM [35S]-TBPS, in the presence of 5 mM GABA
pIC50: −log10 of the molar value.
Parameter: pIC50. Scope: all listed entries.

Would you please look over these solved cases?
{"Compound": "CC(=O)[C@H]1CCC[C@H]2[C@@H]3CC[C@H]4C[C@](C)(O)CC[C@]4(C)[C@H]3CC[C@]12C", "pIC50": "7.00 to 8.00"}
{"Compound": "C[C@@]1(O)CC[C@H]2[C@H](CC[C@@H]3[C@@H]2CC[C@]2(C)[C@@H](C(=O)NCc4ccccn4)CCC[C@@H]32)C1", "pIC50": "7.00 to 8.00"}

Now let's try a different one.
Input: # get_value(readout='pIC50', item= COC[C@@]1(O)CC[C@H]2[C@@H](CC[C@@H]3[C@@H]2CC[C@]2(C)[C@@H](C(=O)Cn4nnnc4C)CCC[C@@H]32)C1 [I-G16a] )
Output: 7.00 to 8.00

* * *

Study target: GABAA receptor (rat brain cortical membranes, [35S]-TBPS binding)
Condition label: Table I-4; rat brain cortical membranes, 3 nM [35S]-TBPS, in the presence of 5 mM GABA
Recorded endpoint: IC50

Here is how some compounds turned out for IC50.
{"Compound": "C[C@@]1(O)CC[C@H]2[C@H](CC[C@@H]3[C@@H]2CC[C@]2(C)[C@@H](CO)CCC[C@@H]32)C1 [I-A3]", "IC50": "0.1 to 1 µM"}
{"Compound": "C[C@@]1(O)CC[C@H]2[C@H](CC[C@@H]3[C@@H]2CC[C@]2(C)[C@H](Nc4ccc(F)cc4)CCC[C@@H]32)C1 [Compound I-11a]", "IC50": "1 to 10 µM"}
{"Compound": "Cc1nnnn1CC(=O)[C@H]1CCC[C@H]2[C@@H]3CC[C@@H]4C[C@](C)(O)CC[C@]4(C)[C@H]3CC[C@]12C [Compound I-20a]", "IC50": "0.1 to 1 µM"}

Input: What does the data say about its IC50? Entry: CCOC[C@@]1(O)CC[C@H]2[C@H](CC[C@@H]3[C@@H]2CC[C@]2(C)[C@@H](C(=O)N4CCCC[C@@H]4C)CCC[C@@H]32)C1 [I-P9]
Output: 0.1 to 1 µM

Input: // lookup IC50 for COC[C@@]1(O)CC[C@H]2[C@@H](CC[C@@H]3[C@@H]2CC[C@]2(C)[C@@H](C(=O)NCc4ccccn4)CCC[C@@H]32)C1 [Compound I-26]
Output: 0.1 to 1 µM

Input: Item under review: COC[C@@]1(O)CC[C@H]2[C@@H](CC[C@@H]3[C@@H]2CC[C@]2(C)[C@H](Nc4ccc(F)cc4)CCC[C@@H]32)C1 [Compound I-23a] . Reported IC50?
Output: 1 to 10 µM

* * *

Entries and their pIC50 values follow.
Study target: TBPS binding
Procedure summary: Steroid inhibition of TBPS binding
Condition label: Table II-2; read-out: TBPS IC50 (μm)
pIC50: −log10 of the molar value.

Known pIC50 results, listed for orientation:
{"Compound": "COC[C@]1(O)C[C@H]2CC[C@@H]3[C@H](CC[C@]4(C)[C@@H](C(=O)Cn5cc(C#N)cn5)CC[C@@H]34)[C@H]2C1 [II-J11]", "Study target": "TBPS binding", "pIC50": "6.00 to 7.00"}
{"Compound": "C[C@]1(O)C[C@H]2CC[C@@H]3[C@H](CC[C@]4(C)[C@@H](C(=O)Cn5cc(C#N)cn5)CC[C@@H]34)[C@H]2C1 [II-G10]", "Study target": "TBPS binding", "pIC50": "6.00 to 7.00"}
{"Compound": "C[C@]1(O)CCC[C@@]2(C)[C@@H](CC[C@@H]3[C@@H]2CC[C@]2(C)[C@@H](C(=O)Cn4cc(C#N)cn4)CC[C@@H]32)C1 [II-D5b]", "Study target": "TBPS binding", "pIC50": "6.00 to 7.00"}

Input: Return reported pIC50; argument: CC(=O)[C@H]1CC[C@H]2[C@@H]3CC[C@@H]4CC(=O)CCC[C@@H]4[C@H]3CC[C@]12C [II-E7b]
Output: 5.00 to 6.00

Input: What does the record list as pIC50 for Cc1nnn(CC(=O)[C@H]2CC[C@H]3[C@@H]4CC[C@@H]5CC[C@](C)(O)CC[C@@H]5[C@H]4CC[C@]23C)n1 [II-F12] ?
Output: 6.00 to 7.00

Input: Name the reported pIC50 value associated with the compound C[C@@]1(O)CC[C@@H]2CC[C@@H]3[C@H](CC[C@]4(C)[C@@H](C(=O)Cn5cc(C#N)cn5)CC[C@@H]34)[C@@]2(C)CC1 [II-C8]
Output: 6.00 to 7.00
